Assay: NCI Yeast Anticancer Drug Screen. Data for the rad50 strain (AID 155);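 note: 0% = growth of vehicle-only cultures of the same strain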
Conditions: S. cerevisiae rad50 strain growth inhibition; at 50.0 µM; active compounds read high
About 79,000 compounds went through this panel and 15% of them were active in at least one assay; those are over-represented in the sample as a whole.
ENDPOINT_NAME: growth inhibition (%)
Give the quantity in %, number only.

These solved cases illustrate the format of a correct answer.
> print(dat)
                             compound  measurement
1  O=C(O)CSc1c(Cl)c(=O)oc2ccc(Cl)cc12         30.3
2         O=C(O)CCCCC(=O)c1cc(O)ccc1O         15.3

// below: growth inhibition requested for another compound
Q: Quick check: growth inhibition of CCCCNC(=O)Oc1cccc2ccccc12 ?
A: 4.3

* * *

Assay: NCI Yeast Anticancer Drug Screen. Data for the bub3 strain (AID 167)
Details: S. cerevisiae bub3 mutant strain, at 50.0 µM, active compounds read high
About 79,000 compounds went through this panel and 15% of them were active in at least one assay; those are over-represented in the sample as a whole.
growth inhibition: recorded values
Give the quantity in %, number only.

These solved cases illustrate the format of a correct answer.
> print(dat)
                                   compound      endpoint.name  unit.string  measurement
1  COC(=O)C(C)(NC(=O)C(CC(=O)OC(C)(C)C)NC(=O)OC(C)(C)C)c1ccccc1 (stereo unspecified)  growth inhibition            %         36.7
2  NC1=NC(c2ccccc2)C2=C(N1)C(=O)N(c1ccc(Br)cc1)C2 (stereo unspecified)  growth inhibition            %          7.7
3         CN1CC[C@H]([C@@H](O)c2ccccc2)C1=O  growth inhibition            %         0.35
4           CN(C)S(=O)(=O)C1(c2ccccc2)CCCC1  growth inhibition            %           -7
5  O=C(CC1NCCS1)OCc1ccc(Br)cc1 (stereo unspecified)  growth inhibition            %         16.9

// below: growth inhibition requested for another compound
Q: Quick check: growth inhibition of CCOC(=O)C(=N\Nc1ccccc1)/C(C)=N\NC(N)=S ?
A: 4.5

* * *

Test: NCI Yeast Anticancer Drug Screen. Data for the rad50 strain (AID 155);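 note: 0% = growth of vehicle-only cultures of the same strain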
Details: S. cerevisiae rad50 strain growth inhibition; at 50.0 µM; active compounds read high
The panel holds about 79,000 compounds, 15% with a hit somewhere; the sample as a whole holds those more often.
ENDPOINT_NAME: growth inhibition (%)
Give the quantity in %, number only.

These solved cases illustrate the format of a correct answer.
> print(dat)
                               entry.smiles  measurement
1  C(CCC[Si]12OCCN(CCO1)CCO2)CC[Si]12OCCN(CCO1)CCO2            6
2        CC(C)(C)OC(=O)CC(c1ccccc1)c1ccccc1        -11.5
3      Cc1ccc(-c2cn3c(nc4ccccc43)c(C)n2)cc1        -27.5
4       CC(=O)C(CCC(=O)O)(CCC(=O)O)c1ccccc1            2
5              CCOC(=O)/C=C(\C)c1ccc(OC)cc1          7.2

Q: Quick check: growth inhibition of O=C(O)CNC(=O)C(=O)c1c[nH]c2ccc([N+](=O)[O-])cc12 ?
A: -6.5

Q: Quick check: growth inhibition of CCn1c2ccccc2c2c(-c3ccccc3)cc3c(c21)C(=O)N(c1ccccc1)C3=O ?
A: -0.3

* * *

Test: NCI Yeast Anticancer Drug Screen. Data for the sgs1 mgt1 strain (AID 161);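 note: 0% = growth of cultures given vehicle only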
Settings: S. cerevisiae sgs1 mgt1 strain, at 50.0 µM
Compounds without any hit were thinned out: in the full panel of roughly 79,000, 15% have a hit. The source made the active and inactive calls. No stated cut-off is given here; in the data, active means growth inhibition above about 70%; inactive means the rest.
A correct response names exactly one class from t for active, f for inactive

Past entries and their recorded results:
> print(dat)
                        compound  class.label
1                N#Cc1cccc(Br)c1            f
2  O=C(Cc1ccccc1)N/N=C\Cc1ccccc1            f

Q: Please let me know the test result on file for COc1cc(-c2ccc(NC(=O)N3CC3)c(OC)c2)ccc1NC(=O)N1CC1 .
A: f

Q: Please let me know the test result on file for Cc1cc2c(=O)n(-c3ccc(F)cc3)c(C)nc2c(C(=O)O)c1C .
A: f

Q: Please let me know the test result on file for CC1(c2ccc(Cl)cc2)NC(=O)N(CC(N)=O)C1=O (stereo not drawn) .
A: f

Q: Please let me know the test result on file for COc1ccc(OC)c(NC(=O)Nc2nccs2)c1 .
A: f

Q: Please let me know the test result on file for CCc1cc2c(c3c1CCC3=O)CC1(Cc3ccc(C)cc3C1)C2 (stereo not drawn) .
A: f

Q: Please let me know the test result on file for CC1OC(C)(c2ccc(Cl)cc2)OCC1(C)C (stereo not drawn) .
A: f

Q: Please let me know the test result on file for COc1ccc2nc(-c3ccccc3)c(=O)[nH]c2c1 .
A: f

Q: Please let me know the test result on file for CC1(C)/C(=C/N=O)N(O)C(C)(C)N1O .
A: f

Q: Please let me know the test result on file for Nc1nc(N)c2cc(N3CCCC3c3ccc(Cl)cc3)ccc2n1 (stereo not drawn) .
A: t

Q: Please let me know the test result on file for O=C(NCCCl)NC(C1CC1)C1CC1 .
A: f

Q: Please let me know the test result on file for COC(=O)CCC(=O)Nc1cc(Cl)c(Cl)cc1Cl .
A: f

* * *

Assay: NCI Yeast Anticancer Drug Screen. Data for the bub3 strain (AID 167)
Conditions: S. cerevisiae bub3 mutant strain, at 50.0 µM, active compounds read high
Description: Growth inhibition of yeast strains with defined genetic alterations is measured as a screen for potential anti-cancer activity. Selected strains with alterations in DNA damage repair or cell cycle control were exposed to compounds and growth inhibition was measured relative to vehicle treated controls. The strain used in this assay is bub3
Compounds without any hit were thinned out: in the full panel of roughly 79,000, 15% have a hit.
ENDPOINT_NAME: growth inhibition (%)
Give the quantity in %, number only.

These solved cases illustrate the format of a correct answer.
COMPOUND	UNIT_STRING	growth inhibition
Cc1cc(C)c2c(-c3ccccc3)cc(=O)[nH]c2c1	%	-33.7
CN1C(=O)c2ccccc2Cc2c(Cl)ncnc21	%	28.6
NC(=O)c1csc(C2O[C@@H](COP(=O)(O)OP(=O)(O)OC[C@H]3OC(n4cnc5c(N)ncnc54)[C@H](O)[C@@H]3O)[C@H](O)[C@@H]2O)n1 (some centres not stated)	%	2.75
Cc1ccc2nc(-c3ccc(Cl)cc3Cl)oc(=O)c2c1	%	20.6

Q: Quick check: growth inhibition of Cc1nnc2cc1CCCCCCCCC2 ?
A: -10.8

Q: Quick check: growth inhibition of COc1cc2c(cc1OC)C(Cl)C(c1ccc(Cl)c(Cl)c1)=C2Cl (configuration not stated) ?
A: -4.15

Q: Quick check: growth inhibition of CCC(=O)/C=C/c1ccccc1O ?
A: 20.4

Q: Quick check: growth inhibition of CCCCC(CC)CSC[N+](C)(CC)CC (configuration not stated) ?
A: 15.9

Q: Quick check: growth inhibition of Cc1ccc(S(=O)(=O)c2scc(-c3ccccc3)c2C)cc1 ?
A: -17.9

Q: Quick check: growth inhibition of O=[N+]([O-])C(Cl)C(Cl)C(Cl)=C(Cl)Cl (configuration not stated) ?
A: 60.8

Q: Quick check: growth inhibition of CCOC(=O)CCCCCCC(=O)OCC ?
A: 1.1

Q: Quick check: growth inhibition of CC(C)(CCl)c1ccccc1 ?
A: 4

* * *

Experiment: NCI Yeast Anticancer Drug Screen. Data for the bub3 strain (AID 167)
Details: S. cerevisiae bub3 mutant strain, at 50.0 µM
Procedure: Growth inhibition of yeast strains with defined genetic alterations is measured as a screen for potential anti-cancer activity. Selected strains with alterations in DNA damage repair or cell cycle control were exposed to compounds and growth inhibition was measured relative to vehicle treated controls. The strain used in this assay is bub3
Compounds without any hit were thinned out: in the full panel of roughly 79,000, 15% have a hit. Activity calls are given as the source filed them. Rule as the data show it: active = growth inhibition above about 70%; inactive = the rest.
A correct response names exactly one class from active, inactive

Past entries and their recorded results:
COMPOUND	CLASS_LABEL
CN(C)Cc1cc(C(C)(C)C)cc(CN(C)C)c1O	inactive
COC(=O)[C@]12CCC(C)(C)C[C@H]1C1=CC[C@@H]3[C@@]4(C)CC[C@H](OC5OC(CO)C(O)C(O)C5OC5OC(CO)C(O)C(O)C5O)C(C)(C)[C@@H]4CC[C@@]3(C)[C@]1(C)CC2 (stereo not given in full)	active
COc1ccc(C(=O)/C=C/c2ccc(OCCCCCCCCCCOc3ccc(/C=C/C(=O)c4ccc(OC)cc4)cc3)cc2)cc1	inactive
Cc1ccc(S(=O)(=O)N/N=C/c2cc([N+](=O)[O-])cc(I)c2O)cc1	inactive
O=NN(Cc1ccccc1)NC(=O)c1ccccc1	inactive
CCOC(=O)C1C(=O)N(O)c2cnccc21 (stereo not given)	inactive

Q: Please let me know the test result on file for CC1CNCC(C)N1C(=O)c1ccccc1 (stereo not given) .
A: inactive

Q: Please let me know the test result on file for CCCCOC(=O)C(C)O (stereo not given) .
A: inactive

Q: Please let me know the test result on file for NC(=O)C(CC(=O)O)NC(=O)c1ccccc1 (stereo not given) .
A: inactive

Q: Please let me know the test result on file for COc1ccc2nc3cc(Cl)ccc3c(Nc3ccc(C(O)CCN(C)C)cc3)c2c1 (stereo not given) .
A: inactive
